Kindly supply the reported OD450 values for the records listed here.
# experimental-system: T1, Peptide 8: Biotin-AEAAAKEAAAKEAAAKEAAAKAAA-Tyr-acid (N-terminal biotin; C-terminal acid)
# T1 construct: control peptide without PC
# T1 peptide: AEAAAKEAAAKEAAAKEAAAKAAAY
# test-name: scFv ELISA
Just the number please, in OD450, no unit attached.

Enquiry: Recorded OD450 of PcOxP_DB02_C11 (scFv, V domains shown, scFv in periplasmic extract) VH: EVQLLESGGGLVQPGGSLRLSCAASGFTSSDFYMEWVRQAPGKGLEWVAASRNKANDYYTEYADSVKGRFTISRDNSKNTLYLQMNSLRAEDTAVYYCARDYYGSSYWYFDVWGQGTLVTVSS VL: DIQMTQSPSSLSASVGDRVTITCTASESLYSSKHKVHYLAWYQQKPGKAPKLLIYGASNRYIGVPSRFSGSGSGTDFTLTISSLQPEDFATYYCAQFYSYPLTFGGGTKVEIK , please.
Return: 0.04

Enquiry: Recorded OD450 of PcOxP_DB02_D01 (scFv, V domains shown, scFv in periplasmic extract) VH: EVQLLESGGGLVQPGGSLRLSCAASGFGFSDFYMEWVRQAPGKGLEWVAASRHKANDYTTEYADSVKGRFTISRDNSKNTLYLQMNSLRAEDTAVYYCARDYYGSSYWYFDVWGQGTLVTVSS VL: DIQMTQSPSSLSASVGDRVTITCTASESLYSSKHKVHYLAWYQQKPGKAPKLLIYGASNRYIGVPSRFSGSGSGTDFTLTISSLQPEDFATYYCAQFYWYPLTFGGGTKVEIK , please.
Return: 0.05
